Give EC50 for every item shown.
target: human purified sGC (heterodimer of sGCα1 and sGCβ1) (Homo sapiens (Human), UniProt Q02108+Q02153); experiment: sGC activation test (cGMP produced, HTRF); conditions: maximum activity of Preparation Example 200 compound (maximum 100 μM) taken as 100%; with SNP; read-out: EC50 (concentration giving 50% of maximum activity)
Sequence (Q02108 whole entry): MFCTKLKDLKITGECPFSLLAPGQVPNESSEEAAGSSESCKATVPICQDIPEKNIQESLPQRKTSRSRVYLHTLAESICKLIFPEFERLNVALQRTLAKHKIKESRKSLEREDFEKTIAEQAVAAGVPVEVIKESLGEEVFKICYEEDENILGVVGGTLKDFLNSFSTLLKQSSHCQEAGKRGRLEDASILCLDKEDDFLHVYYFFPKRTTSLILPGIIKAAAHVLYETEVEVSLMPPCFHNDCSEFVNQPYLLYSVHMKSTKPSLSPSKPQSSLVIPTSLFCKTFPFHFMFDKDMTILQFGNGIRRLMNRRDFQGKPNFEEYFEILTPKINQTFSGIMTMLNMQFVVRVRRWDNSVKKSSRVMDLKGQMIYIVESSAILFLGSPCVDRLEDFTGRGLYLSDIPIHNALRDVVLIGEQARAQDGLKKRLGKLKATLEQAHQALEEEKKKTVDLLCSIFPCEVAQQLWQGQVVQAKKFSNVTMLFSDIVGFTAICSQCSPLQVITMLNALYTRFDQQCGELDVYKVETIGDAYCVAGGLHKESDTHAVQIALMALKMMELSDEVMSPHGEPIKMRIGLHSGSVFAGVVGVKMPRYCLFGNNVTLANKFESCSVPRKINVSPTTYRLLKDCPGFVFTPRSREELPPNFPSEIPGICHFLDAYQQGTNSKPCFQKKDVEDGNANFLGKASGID
Sequence (Q02153 whole entry): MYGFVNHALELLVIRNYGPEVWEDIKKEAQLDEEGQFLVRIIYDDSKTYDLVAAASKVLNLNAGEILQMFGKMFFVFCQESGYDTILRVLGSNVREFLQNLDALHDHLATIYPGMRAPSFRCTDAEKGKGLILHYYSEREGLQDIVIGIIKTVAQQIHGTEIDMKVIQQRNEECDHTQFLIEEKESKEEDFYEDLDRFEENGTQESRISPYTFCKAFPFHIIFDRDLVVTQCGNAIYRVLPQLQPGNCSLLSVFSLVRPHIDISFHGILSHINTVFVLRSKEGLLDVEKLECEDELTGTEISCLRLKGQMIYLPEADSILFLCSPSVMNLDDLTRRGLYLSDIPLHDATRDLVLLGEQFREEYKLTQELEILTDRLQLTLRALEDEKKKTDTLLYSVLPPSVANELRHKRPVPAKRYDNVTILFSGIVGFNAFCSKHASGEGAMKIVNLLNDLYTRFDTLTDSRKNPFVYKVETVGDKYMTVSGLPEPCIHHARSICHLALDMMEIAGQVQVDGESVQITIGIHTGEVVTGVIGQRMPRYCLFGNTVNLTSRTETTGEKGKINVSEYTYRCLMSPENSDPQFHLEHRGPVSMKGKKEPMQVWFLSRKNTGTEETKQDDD
Provide the measurement as a number trailed by its unit.

Solved entries:
>>> obs_value("Cc1nc2c(OCc3c(F)cccc3F)cccn2c1C(=O)NC(C)(C)c1cccc(C(N)=O)c1")
"7.1 µM"
>>> obs_value("Cc1nc2c(OCC3CCCCC3)cccn2c1C(=O)N[C@@H](CO)c1nnnn1C")
"17 µM"
>>> obs_value("Cc1nc2c(OCc3c(F)cccc3F)cccn2c1C(=O)NCc1ccncc1[C@@H](O)[C@@H](C)O (racemic)")
"9.8 µM"
>>> obs_value("Cc1nc2c(OCc3c(F)cccc3F)cccn2c1C(=O)NC(CO)(CO)c1ccc(Cl)cn1")
"3.8 µM"
>>> obs_value("Cc1nc2c(OCc3ncccc3F)cccn2c1C(=O)N[C@@](C)(CO)c1ccccc1F")
"9.8 µM"

Give EC50 for each listed item.
1. Cc1nc2c(OCc3c(F)cccc3F)cccn2c1C(=O)NC(CO)(CO)c1cccc(CO)c1
2. Cc1nc2c(OCC3CCCCC3)cccn2c1C(=O)N[C@@](C)(CO)c1cccc(C(N)=O)c1
3. Cc1nn(C)cc1C(CO)(CO)NC(=O)c1c(C)nc2c(OCc3c(F)cccc3F)cccn12
4. Cc1nc2c(OCc3c(F)cccc3F)cccn2c1C(=O)NC(C)(CO)c1cncnc1 (centres unmarked)
5. CCc1nnc([C@H](CO)NC(=O)c2c(C)nc3c(OCC4CCCCC4)cccn23)o1

["1.7 µM", "0.84 µM", "23 µM", "2.7 µM", "9.1 µM"]

====

molecular target: human purified sGC (heterodimer of sGCα1 and sGCβ1) (Homo sapiens (Human), UniProt Q02108+Q02153); experiment: sGC activation test (cGMP produced, HTRF); settings: maximum activity of Preparation Example 200 compound (maximum 100 μM) taken as 100%; with SNP; read-out: EC50 (concentration giving 50% of maximum activity)
Give log10 of EC50 for every item shown.
Each number you see is log10 of EC50, and the unit inside the log is µM.

>>> obs_value("Cc1cnc(C(CO)(CO)NC(=O)c2c(C)nc3c(OCc4c(F)cccc4F)cccn23)o1")
1.08
>>> obs_value("Cc1nc2c(OCc3c(F)cccc3F)cccn2c1C(=O)NC(CO)(CO)c1cnn(C)c1")
1.32
>>> obs_value("Cc1nc2c(OCC3CCCCC3)cccn2c1C(=O)NC(CO)(CO)c1nnn(C(F)F)n1")
0.54
>>> obs_value("Cc1nc2c(OCc3c(F)cccc3F)cccn2c1C(=O)N[C@@](C)(CO)c1ccccn1")
0.11
>>> obs_value("CCn1nnc(C(C)(CO)NC(=O)c2c(C)nc3c(OCc4c(F)cccc4F)cccn23)n1 (stereo not shown)")
0.76
>>> obs_value("Cc1nc2c(OCc3c(F)cccc3F)cccn2c1C(=O)NC(CO)(CO)c1ccn(C)n1")
1.26

Give log10 of EC50 for each listed item.
1. Cc1nc2c(OCC3CCCCC3)cccn2c1C(=O)NC(CO)(CO)c1nnc(C2CC2)o1
2. Cc1nc2c(OCC3CCCCC3)cccn2c1C(=O)N[C@@](C)(CO)c1cccc(-c2nn[nH]n2)c1
3. CCn1nnc([C@H](CO)NC(=O)c2c(C)nc3c(OCc4c(F)cccc4F)cccn23)n1
4. Cc1nn(C)cc1C(C)(CO)NC(=O)c1c(C)nc2c(OCc3c(F)cccc3F)cccn12 (stereo not shown)

1: 1.30; 2: -0.25; 3: 1.20; 4: 1.15

Give log10 of EC50 for each listed item.
1. Cc1nnc(C(C)(CO)NC(=O)c2c(C)nc3c(OCc4c(F)cccc4F)cccn23)s1 (stereo not shown)
2. Cc1nc2c(OCC3CCCCC3)cccn2c1C(=O)NC(C)(CO)c1nnn(CCO)n1 (stereo not shown)
3. Cc1nc2c(OCc3c(F)cccc3F)cccn2c1C(=O)N[C@@H](CO)c1nnn(C(C)C)n1
4. Cc1nnc(C(CO)(CO)NC(=O)c2c(C)nc3c(OCC4CCCCC4)cccn23)o1
5. Cc1nc2c(OCc3cccc(F)c3F)cccn2c1C(=O)NC(C)(CO)c1nnn(C)n1 (stereo not shown)

0.85
0.88
1.08
1.38
1.32

Give log10 of EC50 for each listed item.
1. Cc1nc2c(OCC3CCCCC3)cccn2c1C(=O)N[C@@](C)(CO)c1cccc(-c2nnn(C)n2)c1
2. Cc1nc2c(OCc3ccccc3F)cccn2c1C(=O)N[C@@](C)(CO)c1cccc(CO)c1
3. Cc1nc2c(OCc3c(F)cccc3F)cccn2c1C(=O)NC(C)(CO)c1nnn(C)n1 (stereo not shown)
4. Cc1nc2c(OCc3c(F)cccc3F)cccn2c1C(=O)N[C@]1(c2ccccc2)CC[C@@H](O)[C@H]1O (racemic)
5. Cc1nc2c(OCc3c(F)cccc3F)cccn2c1C(=O)N[C@@H](CO)c1nnn(C)n1
6. Cc1nnc(C(C)(CO)NC(=O)c2c(C)nc3c(OCc4c(F)cccc4F)cccn23)o1 (stereo not shown)
7. Cc1nc2c(OCc3c(F)cccc3F)cccn2c1C(=O)NC(C)(CO)c1nnn(CC(C)(C)O)n1 (stereo not shown)

1. 0.41
2. 0.45
3. 0.98
4. 1.08
5. 1.38
6. 0.81
7. 1.04

Give log10 of EC50 for each listed item.
1. Cc1ncc([C@H](CO)NC(=O)c2c(C)nc3c(OCc4c(F)cccc4F)cccn23)s1
2. Cc1nc2c(OCc3c(F)cccc3F)cccn2c1C(=O)NCc1ccccc1[C@H](O)[C@@H](C)O
3. Cc1nnc(C(C)(CO)NC(=O)c2c(C)nc3c(OCC4CCCCC4)cccn23)o1 (stereo not shown)
4. Cc1nc2c(OCc3c(F)cccc3F)cccn2c1C(=O)N[C@@](C)(CO)c1nnn(C(F)F)n1
5. Cc1nc2c(OCc3c(F)cccc3F)cccn2c1C(=O)NC(C)(CO)c1nnn(CC2CC2)n1 (stereo not shown)
6. Cc1nc2c(OCc3c(F)cccc3F)cccn2c1C(=O)N[C@]1(c2ccccc2)CC[C@H](O)[C@H]1O (racemic)

[0.56, 0.87, 0.85, -0.14, 0.79, 1.11]

====

Give log10 EC50 for every item shown.
target: human purified sGC (heterodimer of sGCα1 and sGCβ1) (Homo sapiens (Human), UniProt Q02108+Q02153); assay: sGC activation test (cGMP produced, HTRF); settings: maximum activity of Preparation Example 200 compound (maximum 100 μM) taken as 100%; with SNP; read-out: EC50 (concentration giving 50% of maximum activity)
Each number you see is log10 of EC50, and the unit inside the log is µM.

Solved entries:
>>> obs_value("Cc1nc2c(OCc3cccc(F)c3F)cccn2c1C(=O)NC(CO)(CO)c1ccc(F)cc1 [Example 61]")
0.81
>>> obs_value("Cc1ncc(C(C)(CO)NC(=O)c2c(C)nc3c(OCc4c(F)cccc4F)cccn23)s1 (stereo not drawn) [Example 2]")
0.41
>>> obs_value("Cc1cnc(C(CO)(CO)NC(=O)c2c(C)nc3c(OCc4c(F)cccc4F)cccn23)s1 [Example 72]")
0.43
>>> obs_value("Cc1nc2c(OCc3c(F)cccc3F)cccn2c1C(=O)NC(C)(CO)c1ncccn1 (stereo not drawn) [Example 14]")
0.64
>>> obs_value("Cc1cnc(C(C)(CO)NC(=O)c2c(C)nc3c(OCc4c(F)cccc4F)cccn23)o1 (stereo not drawn) [Example 38]")
0.40
>>> obs_value("Cc1nc2c(OCc3c(F)cccc3F)cccn2c1C(=O)N[C@@](C)(CO)c1cccc(C(N)=O)c1 [Example 12]")
-0.11

Give log10 EC50 for each listed item.
1. CCc1nnc(C(C)(CO)NC(=O)c2c(C)nc3c(OCC4CCCCC4)cccn23)o1 (stereo not drawn) [Example 86]
2. Cc1ncc(C(CO)(CO)NC(=O)c2c(C)nc3c(OCc4c(F)cccc4F)cccn23)s1 [Example 78]
3. [C-]#[N+]c1cccc([C@](C)(CO)NC(=O)c2c(C)nc3c(OCC4CCCCC4)cccn23)c1 [Example 85]
4. Cc1nc2c(OCC3CCCCC3)cccn2c1C(=O)N[C@@](C)(CO)c1cccc(C(=O)O)c1 [Example 3]

1: 0.75; 2: 0.71; 3: 0.46; 4: -0.14

====

biological target: human purified sGC (heterodimer of sGCα1 and sGCβ1) (Homo sapiens (Human), UniProt Q02108+Q02153); assay: sGC activation test (cGMP produced, HTRF); conditions: maximum activity of Preparation Example 200 compound (maximum 100 μM) taken as 100%; with SNP; read-out: EC50 (concentration giving 50% of maximum activity)
Measured endpoint: pEC50
Give bare numbers, as −log10 of the molar value.

>>> obs_value("Cc1nc2c(OCc3c(F)cccc3F)cccn2c1C(=O)NC(CO)(CO)c1cccc(F)c1 [Example 55]")
5.70
>>> obs_value("Cc1nc2c(OCc3c(F)cccc3F)cccn2c1C(=O)NC(CO)(CO)c1nnn(C)n1 [Example 64]")
4.52
>>> obs_value("Cc1nc2c(OCc3c(F)cccc3F)cccn2c1C(=O)NC(CO)(CO)c1ccc(F)cc1 [Example 54]")
5.57
>>> obs_value("Cc1nc(C(C)(CO)NC(=O)c2c(C)nc3c(OCc4c(F)cccc4F)cccn23)no1 (stereo not shown) [Example 41]")
5.28

Give pEC50 for each listed item.
1. Cc1nc2c(OCc3c(F)cccc3F)cccn2c1C(=O)NCc1ccccc1[C@H](O)[C@H](C)O [Example 30]
2. Cc1csc(C(C)(CO)NC(=O)c2c(C)nc3c(OCc4c(F)cccc4F)cccn23)n1 (stereo not shown) [Example 40]
3. Cc1nc2c(OCc3c(F)cccc3F)cccn2c1C(=O)N[C@@H](CO)c1nnc(C2CC2)o1 [Example 46]
4. Cc1nc2c(OCC3CCCCC3)cccn2c1C(=O)N[C@@H](CO)c1nnn(C)n1 [Example 34]
5. Cc1nc2c(OCC3CCCCC3)cccn2c1C(=O)NC(C)(CO)c1nnn(C)n1 (stereo not shown) [Example 73a]
6. Cc1nc2c(OCc3c(F)cccc3F)cccn2c1C(=O)N[C@@](C)(CO)c1ccccc1 [Example 9]
7. Cc1nc2c(OCc3c(F)cccc3F)cccn2c1C(=O)N[C@]1(c2ccccn2)C[C@@H](O)[C@@H](O)C1 [Example 67]
8. Cc1nc2c(OCc3c(F)cccc3F)cccn2c1C(=O)NC(C)(CO)c1nnn(C2CC2)n1 (stereo not shown) [Example 76]

1: 5.25; 2: 5.42; 3: 4.70; 4: 4.96; 5: 5.19; 6: 6.14; 7: 4.62; 8: 5.24
